- experimental system: T1, CNDP2 peptide complexed with HLA-A*02:01 on T2 cells (human)
- T1 construct: whole, on cells; also called CNPD2
- measurement notes: flow cytometry, peptide-loaded T2 cells;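 note: binding of single-chain Fv antibody constructs, raised in XenoMouse, to peptide-pulsed T2 cells measured by flow cytometry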
measurement label: Signal/background
I only need the number, thanks.

Some binders with known Signal/background results, for comparison:
binder | Signal/background
18089-D11 (scFv, scFv in bacterial lysate, detected with anti-Flag M2) scFv: EVQLLESGPVLVKPTQTLTLTCTFSGFSFTTHKMGVDWIRQPPGKALEWLALIYWNDDKRYNPSLQSRLTITKDTSKNQVVLTMTNMDPVDTATYYCAYRRYNWNYENWFDPWGQGTLVTVSSGGGGSGGGGSGGGGSELVMTQSPSSLSASVGDRVTITCRASQSISNYFNWYQQKPGKAPKLLIYAASSLQSGVPSRFSGSGSGTDFTLTISSLQPEDFATYYCQQSYITPFTFGGGTKLEIK | 1
18081-E7 (scFv, scFv in bacterial lysate, detected with anti-Flag M2) scFv: EVQLLESGPGLVKPSETLSLTCTVSGDSISSSRYYWGWIRQPPGKGLEWIGSIYYSGSTYYNPSLKSRVTISVDTSKNQFSLKLSSVTAADTAVYYCARGIFGVITYFDYWGQGTLVTVSSGGGGSGGGGSGGGGSELVMTQTPDSLAVSLGERATINCKSSQSVLYSSNNKNYLAWYQQKPGQPPKLLIYWASTRESGVPDRFSGSGSGTDFTLTISSLQAEDVAVYYCQQYYSTPLTFGGGTKVEIK | 1

Query binder follows.
Look at this binder and give its reported Signal/background. 18182-E10 (scFv, scFv in bacterial lysate, detected with anti-Flag M2) scFv: EVQLLESGGGLVQPGGSLRLSCAASGFTFSSHAMSWVRQAPGQGLEWVSSISGSGGGTYYAASVKGRFTISRDNSKNTLYLQMNSLRAEDTAVYYCATGKGVHLNFDYWGQGTLVTVSSGGGGSGGGGSGGGGSELALTQPASASVAPGQTARITCGGNNIGSKSVHWHQQKPGQAPVLVVYDDNDRPSGIPERFSGSNSGNTATLTISRVEAGDEADFYCQVWDSSSDHVVFGGGTKLTVL
0.8
